Tested on: HCC-2998 colon
Assay: NCI-60 one-dose screen, 48 h
Conditions: 10 µM unless noted
This is part of a sample that, as a whole, favours compounds with a hit. Of some 83,000 tested, about 20% had one in any assay. Activity calls are given as the source filed them. The calls were made as follows: active = growth percent below 10; inactive = the rest.
API: response.call in active, inactive

Incoming: Called result for CC(=O)OC[C@H]1OC(Sc2sc(C(=O)c3ccc(Br)cc3)c(N)c2-c2nc3ccccc3s2)[C@H](OC(C)=O)[C@@H](OC(C)=O)[C@H]1OC(C)=O (some centres undefined)
Outgoing: inactive

Incoming: Called result for `Cc1cc2nc3cc(C)c(N)cc3[n+](-c3ccccc3)c2cc1N`
Outgoing: inactive

Incoming: Called result for `Cn1cc(-c2cc3ncnc(Nc4ccc(CC(=O)Nc5cc(C(C)(C)C)nn5C)cc4)c3s2)cn1`
Outgoing: inactive

Incoming: Called result for `CCOc1c(B(O)O)cccc1-c1nc2ccc3[nH]ncc3c2c2c1CCCC2`
Outgoing: inactive

====

Tested on: ACHN renal
Experiment: NCI-60 one-dose screen, 48 h (100 = growth as untreated, 0 = no growth, -100 = all killed)
Details: 10 µM unless noted
The panel holds about 83,000 compounds, 20% with a hit somewhere; the sample as a whole holds those more often.
Outcome Measure: growth (%)
One number for each entry, in %.

Some molecules with known growth results, for comparison:
COc1ccc(C2C(N)=NNC2c2cccc(O)c2)cc1 (stereo unspecified) : 106
CC(=O)N1N=C(c2ccc(Nc3nc(Nc4ccc(F)cc4)nc(Nc4ccc(Cl)cc4)n3)cc2)CC1c1ccc(Cl)cc1 (stereo unspecified) : 83.1
Cc1ccc(-c2nc(N3CCN(C(=O)Nc4ccc(Cl)c(C(F)(F)F)c4)CC3)c3ccccc3n2)cc1 : 71.5

// for each molecule in input: emit growth
1. O=C(CCc1nnc(-c2c(Cl)cccc2Cl)o1)c1nc2ccccc2[nH]1
2. COc1cc(C(=O)N2N=C(c3ccc(S(C)(=O)=O)cc3)CC2c2ccco2)cc(OC)c1OC (stereo unspecified)
3. O=c1c2cc(F)cc(Cl)c2sc2c(NCCCNCCO)nc3ccccc3c12
4. O=C(CCN1C(=O)/C(=C/c2ccc(O)cc2)SC1=S)Nc1ccccc1
5. CNCCCNc1nc2ccccc2c2c(=O)c3cc(OC)ccc3sc12
6. CCCCOc1nc2ccc(OC)cc2cc1-c1cc(-c2ccc(Cl)cc2)nc(-c2ccc(Cl)cc2)c1

Outgoing:
1: 81.3; 2: 48.5; 3: 83.8; 4: 92; 5: 70.5; 6: 96.3

====

Tested on: SK-MEL-28 melanoma
Assay: NCI-60 one-dose screen, 48 h
Conditions: 10 µM unless noted
This is part of a sample that, as a whole, favours compounds with a hit. Of some 83,000 tested, about 20% had one in any assay. Calls of active or inactive are those of the source. Rule for the calls: active = growth percent below 10; inactive = the rest.
API: response.call in true (1) for active, false (0) for inactive

Reference set (2 entries):
CCCCn1c(-c2ccc(C(=O)O/N=C(\N)c3ccc(OC)cc3)cc2)nc(-c2ccccc2)c1-c1ccccc1 : false (0)
Brc1c[n+](Cc2ccc3ccccc3c2)cn1Cc1ccc2ccccc2c1 : true (1)

Incoming: Called result for `COc1cccc(Cc2cc(-c3ccccc3)nn(CC(=O)c3ccccc3)c2=O)c1`
Outgoing: false (0)

Incoming: Called result for OC(COc1ccccc1Cl)CN1CCN(c2cccc(Cl)c2)CC1 (stereo unspecified)
Outgoing: false (0)

Incoming: Called result for `COc1nc2ccccc2cc1-c1nc2c(cnn2-c2ccccc2)c(=O)[nH]1`
Outgoing: false (0)

====

Test system: HCT-15 colon
Assay: NCI-60 one-dose screen, 48 h
Conditions: 10 µM unless noted
The panel holds about 83,000 compounds, 20% with a hit somewhere; the sample as a whole holds those more often. Active and inactive are the calls of the source. The calls were made as follows: active = growth percent below 10; inactive = the rest.
API: response.call in yes = active, no = inactive

CSc1ncccc1C(=O)OCC(=O)Nc1oc(C)c2c(C)n[nH]c(=O)c12 : no
N[C@@H](Cc1ccccc1)[C@@H](O)C(=O)NCc1ccc(F)cc1 : no
CC(=O)OC[C@H]1OC(Sc2sc(C(=O)c3ccc(C)cc3)c(N)c2-c2nc3ccccc3s2)[C@H](OC(C)=O)[C@@H](OC(C)=O)[C@@H]1OC(C)=O (some centres undefined) : no

Incoming: Called result for `CCN(CC)CCCNc1nc2ccccc2c2c(=O)c3cc(Cl)ccc3sc12`
Outgoing: no

Incoming: Called result for `c1ccc(-c2nc3nonc3nc2-c2ccccc2)cc1`
Outgoing: no

Incoming: Called result for CCc1cccc2c3c(sc12)C(c1ccc(Cl)cc1)C(C#N)=C(N)O3 (centres undefined)
Outgoing: no

Incoming: Called result for `Oc1ccc(Cl)cc1Cc1cc(Cl)cc(Cl)c1O`
Outgoing: no

Incoming: Called result for `Cn1cc(-c2ccc3cc(-c4ccc(CC(=O)Nc5cc(C(C)(C)C)nn5C)cc4)cnc3c2)cn1`
Outgoing: yes

Incoming: Called result for `CCCCCCNC(=O)Oc1ccc(/C(=C(\C)c2ccc(OC)cc2)c2ccc(OCCN3CCCCC3)cc2)cc1`
Outgoing: yes

====

Test system: HS 578T breast
Assay: NCI-60 one-dose screen, 48 h
Conditions: 10 µM unless noted
Compounds without any hit were thinned out: in the full panel of roughly 83,000, 20% have a hit. Active and inactive are the calls of the source. The calls were made as follows: active = growth percent below 10; inactive = the rest.
API: response.call in Yes = active, No = inactive

COc1ccccc1/C=C1\Oc2cc(OCCN3CCC(Cc4ccccc4)CC3)ccc2C1=O : No
CCOC(=O)C1=C(N)Oc2c(sc3c(C)cccc23)C1c1ccc(F)cc1 (centres undefined) : No
CC1=C([Se]CC(OC(=O)[C@@H](CSSC(C)(C)C)NC(=O)OC(C)(C)C)C(=O)NC(C)(C)C)C(=O)c2ccccc2C1=O (some centres undefined) : Yes
O=C(O)CCC/C=C\C[C@H]1C=CC(=O)/C1=C/C[C@@H](O)CCc1cccc(C(F)(F)F)c1 : No
COc1ccc(C(=O)n2nc(-c3ccccc3)nc2N)cc1OC : No

Incoming: Called result for `O=C(Nc1ccc(OS(=O)(=O)c2ccc(F)cc2)cc1)c1ccc(Cl)cc1`
Outgoing: No

Incoming: Called result for `Cc1cccc(NC2=C(Cl)C(=O)c3nc(C)ccc3C2=O)c1`
Outgoing: Yes

Incoming: Called result for COc1ccc(-c2cc3c4c(nc5ccccc5c4c2)CC(c2cc(OC)c(OC)c(OC)c2)O3)cc1 (centres undefined)
Outgoing: No

Incoming: Called result for `Cc1nc(/N=C(\N)NC(=O)Nc2ccccc2Cl)sc1C`
Outgoing: No

====

System: K-562 leukemia
Test: NCI-60 one-dose screen, 48 h
Conditions: 10 µM unless noted
This is part of a sample that, as a whole, favours compounds with a hit. Of some 83,000 tested, about 20% had one in any assay. Activity calls are given as the source filed them. The calls were made as follows: active = growth percent below 10; inactive = the rest.
API: response.call in active, inactive

Cc1ccc(C(=O)NN2C(=O)CSC2c2ccc(Cl)cc2)cn1 (stereo not given) : inactive
CCOc1c(B(O)O)cccc1-c1nc2ccc3[nH]ncc3c2c2c1CCCC2 : inactive
COc1ccc(/C=C/c2c(C(=O)/C=C/c3ccc(Cl)cc3)c(C)nc3ccccc23)cc1 : active
COC1=C(C)C(=O)c2c(c(CCCl)c3n2CCC3OC(C)=O)C1=O (stereo not given) : inactive
CCc1cccc2c1S/C(=C/c1ccc(OC)cc1)C2=O : inactive
c1ccc(OCc2nnc(-c3ccc(Oc4ccccc4)cc3)o2)cc1 : inactive
O=c1c2cc(F)ccc2sc2c(N3CCCCC3)nc3ccccc3c12 : inactive
C(=N/Nc1ncnc2nc[nH]c12)/c1ccccn1 : inactive

Incoming: Called result for Cc1cc(O)c(C2=NN(c3ccc(S(N)(=O)=O)cc3)C(/C=C/c3ccccc3)C2)cc1Cl (stereo not given)
Outgoing: inactive

Incoming: Called result for `COc1cc2oc(-c3ccc(O)cc3)cc(=O)c2c(O)c1-c1c(OC)cc(O)c2c(=O)cc(-c3ccc(O)cc3)oc12`
Outgoing: inactive

Incoming: Called result for `Oc1ccc(Cl)cc1Cc1cc(Cl)cc(Cl)c1O`
Outgoing: active

Incoming: Called result for `COc1cccc(-c2nc(-c3ccc(NC(=O)C(C)C)cc3)[nH]c2-c2ccnc(Br)c2)c1`
Outgoing: active

Incoming: Called result for `COc1ccc(-c2cc(-c3cc(OC)c(OC)c(OC)c3)nc(N3CCOCC3)c2C#N)cc1`
Outgoing: inactive

Incoming: Called result for `CN1C(=O)CNC(=O)[C@H](NC(=O)c2nc3ccccc3cc2O)CSSC[C@H]1C(=O)NCCCc1nc2ccccc2cc1O`
Outgoing: inactive

Incoming: Called result for `COc1cc(CNS(=O)(=O)c2ccc(C)cc2)ccc1OCc1cn(-c2ccccc2)nn1`
Outgoing: inactive

Incoming: Called result for `CCN(CC)CCCNc1nc2ccccc2c2c(=O)c3cc(Cl)ccc3sc12`
Outgoing: active

Incoming: Called result for `O=C(Nc1ccc(F)cc1F)c1cc(F)ccc1O`
Outgoing: active

Incoming: Called result for CCN(CC)c1ccc(C2=NN(C(C)=O)C(c3cc(OC)c(OC)c(OC)c3)C2)cc1 (stereo not given)
Outgoing: active

Incoming: Called result for `COc1ccc2sc3c(NCCCN(C)C)nc4ccccc4c3c(=O)c2c1`
Outgoing: active

Incoming: Called result for `Cc1ccc(-c2cnc3sc(C(=O)NCCc4ccccc4)c(C)n23)cc1`
Outgoing: inactive

Incoming: Called result for `O=C1/C(=C/c2ccccc2[N+](=O)[O-])Oc2ccc(O)c(O)c21`
Outgoing: inactive

Incoming: Called result for CC(=O)CC(c1cccs1)c1c(-c2ccccc2)[nH]c2ccccc12 (stereo not given)
Outgoing: inactive

Incoming: Called result for `Cc1cccc(NC2=C(Cl)C(=O)c3nc(C)ccc3C2=O)c1`
Outgoing: active

Incoming: Called result for COc1c(N2CC3CCCN(C(C)=O)C3C2)c(F)cc2c(=O)c(C(=O)N[C@H]3C(O)[C@@H](O)C(CO)O[C@H]3O)cn(C3CC3)c12 (stereo not given in full)
Outgoing: inactive
